biological target: recombinant soluble homotrimeric HA, A/Hong Kong/156/97 (H5N1) (influenza A virus A/Hong Kong/156/97 (H5N1)); test: microarray, trimeric HA, transfection supernatant; conditions: remark: other sources report otherwise
Catalogue of Trimeric HA Binding RLU values
readout_name: Trimeric HA Binding RLU (RLU)

[
  {
    "binder": "TCN-542 (5079_A16) (antibody, V domains shown) VH: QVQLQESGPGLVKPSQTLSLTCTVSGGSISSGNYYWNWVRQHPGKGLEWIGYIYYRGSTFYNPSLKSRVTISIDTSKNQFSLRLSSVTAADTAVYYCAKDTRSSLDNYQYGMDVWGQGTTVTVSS VL: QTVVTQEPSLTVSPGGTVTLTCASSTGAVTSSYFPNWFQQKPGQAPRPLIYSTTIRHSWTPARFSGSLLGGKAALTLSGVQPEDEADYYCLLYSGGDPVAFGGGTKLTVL",
    "readout_name": "Trimeric HA Binding RLU",
    "experimental_result": 786
  },
  {
    "binder": "TCN-545 (5082_I15) (antibody, V domains shown) VH: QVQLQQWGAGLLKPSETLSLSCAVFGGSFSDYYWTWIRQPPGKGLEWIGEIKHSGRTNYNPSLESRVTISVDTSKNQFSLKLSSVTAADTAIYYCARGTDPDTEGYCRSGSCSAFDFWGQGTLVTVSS VL: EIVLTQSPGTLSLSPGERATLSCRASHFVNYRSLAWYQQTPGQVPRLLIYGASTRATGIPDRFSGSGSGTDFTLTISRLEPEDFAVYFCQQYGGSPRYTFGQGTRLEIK",
    "readout_name": "Trimeric HA Binding RLU",
    "experimental_result": 1560
  },
  {
    "binder": "TCN-504 (3251_K17) (antibody, V domains shown) VH: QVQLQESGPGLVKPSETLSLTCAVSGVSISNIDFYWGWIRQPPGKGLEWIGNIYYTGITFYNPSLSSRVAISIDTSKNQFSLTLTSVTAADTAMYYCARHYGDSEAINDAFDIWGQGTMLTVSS VL: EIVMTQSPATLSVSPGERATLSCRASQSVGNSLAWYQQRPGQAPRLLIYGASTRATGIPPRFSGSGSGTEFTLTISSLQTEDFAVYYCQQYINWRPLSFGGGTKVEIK",
    "readout_name": "Trimeric HA Binding RLU",
    "experimental_result": 26600
  },
  {
    "binder": "TCN-546 (5089_L08) (antibody, V domains shown) VH: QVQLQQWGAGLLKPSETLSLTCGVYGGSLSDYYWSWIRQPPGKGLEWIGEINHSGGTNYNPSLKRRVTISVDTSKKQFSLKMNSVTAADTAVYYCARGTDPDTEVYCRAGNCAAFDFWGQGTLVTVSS VL: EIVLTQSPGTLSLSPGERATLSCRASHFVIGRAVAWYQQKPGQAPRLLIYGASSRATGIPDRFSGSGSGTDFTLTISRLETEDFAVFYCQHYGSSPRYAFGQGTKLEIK",
    "readout_name": "Trimeric HA Binding RLU",
    "experimental_result": 1240
  }
]
